Listing of entries alongside the reported MIC50.
# System: P. acnes
# EXPERIMENT NOTES: MIC and MBC against 16 clinical isolates of P. acnes (broth microdilution, no sebum)
# Type: cell-based, Propionibacterium acnes
# TEST SETTINGS: Cutibacterium acnes; 16 P. acnes isolates; no sebum
# Protocol: The nanoemulsions (“NB-00X”) comprised, in an aqueous medium, soybean oil, Tween 20® as a nonionic surfactant, ethanol, cetylpyridinium chloride (CPC) as a cationic surfactant, EDTA, and water, and optionally, a thickening agent for the gel formulation. […] The minimal bactericidal concentrations (MBC) for P. acnes were determined by plating 10 μl from the well determined to be the MIC plus 4 wells above the MIC on blood-supplemented Mueller-Hinton agar plate. […]
Write the answer as a number in µg/mL, unit excluded.

O=C(OOC(=O)c1ccccc1)c1ccccc1 [Benzoyl peroxide, benzoyl peroxide] = 50
CN(C)[C@@H]1C(O)=C(C(N)=O)C(=O)[C@@]2(O)C(O)=C3C(=O)c4c(O)cccc4[C@@](C)(O)[C@H]3C[C@@H]12 = 1
CCC[C@@H]1C[C@@H](C(=O)N[C@@H]([C@H]2O[C@H](SC)[C@H](O)[C@@H](O)[C@H]2O)[C@H](C)Cl)N(C)C1 = 2
O=C(O)c1ccccc1O = 1000

Would you kindly look at the next entry?
Problem: Quick one: MIC50 of CC[C@H]1OC(=O)[C@H](C)[C@@H](O[C@H]2C[C@@](C)(OC)[C@@H](O)[C@H](C)O2)[C@H](C)[C@@H](O[C@@H]2O[C@H](C)C[C@H](N(C)C)[C@H]2O)[C@](C)(O)C[C@@H](C)C(=O)[C@H](C)[C@@H](O)[C@]1(C)O ?
Result: 2
